// provenance: patent US20250250357A1

target: T1, human MSLN-hFc protein (Acro, Cat. No. MSN-H5253) (human, UniProt Q13421 296-580); assay: ELISA, coated human MSLN-hFc, antibody 0.01 nM
T1 construct: bought protein; also called human MSLN full-length protein; not shown: human Fc (hFc) of the bought protein
T1 sequence (Q13421 other isoform, or with tags, fused parts or gaps limits assumed): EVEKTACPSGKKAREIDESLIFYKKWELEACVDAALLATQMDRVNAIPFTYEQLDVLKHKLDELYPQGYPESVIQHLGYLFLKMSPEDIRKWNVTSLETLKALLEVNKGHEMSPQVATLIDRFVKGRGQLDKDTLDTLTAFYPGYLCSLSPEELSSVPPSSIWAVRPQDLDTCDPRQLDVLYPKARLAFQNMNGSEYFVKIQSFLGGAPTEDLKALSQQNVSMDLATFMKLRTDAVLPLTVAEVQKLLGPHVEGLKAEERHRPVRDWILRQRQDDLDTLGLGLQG
Give OD450 nm for every item shown.
The answer should be written as a number, with no unit following it.

Short answer for F2.23.12-H5 (scFv, not shown: small tags and cut ends, also called S009-F2.23.12 humanized VH2 + VL1) scFv: EVQLVQSGAEVKKPGASVKVSCKASGYTFTNYWMHWVRQAPGQGLEWMGNINPSNGGPYYNERFRSRVTMTVDKSTSTAYMELSSLRSEDTAVYYCARPYYGSSYGYFDYWGQGTTVTVSSGGGGSGGGGSGGGGSDIQMTQSPSSLSASVGDRVTITCKASQDINKYIAWYQQKPGKAPKLLIHYTSELQPGVPSRFSGSGSGTDFTFTISSLQPEDIATYYCLQYANPLRTFGGGTKVEIK : OD450 nm was 0.07

Short answer for F2.23.12-H16 (scFv, not shown: small tags and cut ends, also called S009-F2.23.12 humanized VH4 + VL4) scFv: EVQLVQSGAEVKKPGASVKVSCKASGYTFTNYWMHWVRQAPGQGLEWMGNINPSQGGPYYNERFRSRVTMTVDKSTSTAYMELSSLRSEDTAVYYCARPYYGSSYGYFDYWGQGTTVTVSSGGGGSGGGGSGGGGSDIQMTQSPSSLSASVGDRVTITCKASQDINKYIAWYQHKPGKAPKLLIHYTSELQPGVPSRFSGSGSGRDYTFTISSLQPEDIATYYCLQYANPLRTFGGGTKVEIK : OD450 nm was 0.06

Short answer for F2.23.12-H1 (scFv, not shown: small tags and cut ends, also called S009-F2.23.12 humanized VH1 + VL1) scFv: EVQLVQSGAEVKKPGASVKVSCKASGYTFTNYWMHWVRQAPGQGLEWMGNINPSNGGPYYNERFRSRVTMTVDKSTSTVYMELSSLRSEDTAVYYCARPYYGSSYGYFDYWGQGTTVTVSSGGGGSGGGGSGGGGSDIQMTQSPSSLSASVGDRVTITCKASQDINKYIAWYQQKPGKAPKLLIHYTSELQPGVPSRFSGSGSGTDFTFTISSLQPEDIATYYCLQYANPLRTFGGGTKVEIK : OD450 nm was 0.07
